target: PARP7 (Homo sapiens (Human)); assay: Enzymatic assay for inhibition of PARP7: TR-FRET displacement of biotinylated Probe A from the TIPARP active site; type: binding; settings: Table A-1
pIC50: −log10 of the molar value.
MEASURED_ENDPOINT: pIC50

Worked cases, pIC50 given:
CC[C@@H](COCCC(=O)N1CCN(c2ncc(Cl)cn2)CC1)Nc1cn[nH]c(=O)c1C(F)(F)F : > 7.00
N#Cc1ccc(N2CCN(C(=O)CCCOC[C@@H]3c4ccccc4CN3c3cn[nH]c(=O)c3C(F)(F)F)CC2)nc1 : > 7.00
O=c1[nH]ncc(N2Cc3cc(F)c(N4CCOCC4)cc3C2)c1C(F)(F)F : > 7.00

Now let's try a different one.
Form field pIC50, entry N#Cc1ccc(N2CCN(C(=O)CCO[C@@H](CO)COc3cn[nH]c(=O)c3C(F)(F)F)CC2)nc1 (single isomer, unassigned) [Example 573 Isomer A] : > 7.00

----------
target: PARP7 (Homo sapiens (Human), UniProt Q7Z3E1); test: Enzymatic assay for inhibition of PARP7: TR-FRET displacement of biotinylated Probe A from the TIPARP active site; conditions: Table A-1
Sequence (Q7Z3E1 whole entry): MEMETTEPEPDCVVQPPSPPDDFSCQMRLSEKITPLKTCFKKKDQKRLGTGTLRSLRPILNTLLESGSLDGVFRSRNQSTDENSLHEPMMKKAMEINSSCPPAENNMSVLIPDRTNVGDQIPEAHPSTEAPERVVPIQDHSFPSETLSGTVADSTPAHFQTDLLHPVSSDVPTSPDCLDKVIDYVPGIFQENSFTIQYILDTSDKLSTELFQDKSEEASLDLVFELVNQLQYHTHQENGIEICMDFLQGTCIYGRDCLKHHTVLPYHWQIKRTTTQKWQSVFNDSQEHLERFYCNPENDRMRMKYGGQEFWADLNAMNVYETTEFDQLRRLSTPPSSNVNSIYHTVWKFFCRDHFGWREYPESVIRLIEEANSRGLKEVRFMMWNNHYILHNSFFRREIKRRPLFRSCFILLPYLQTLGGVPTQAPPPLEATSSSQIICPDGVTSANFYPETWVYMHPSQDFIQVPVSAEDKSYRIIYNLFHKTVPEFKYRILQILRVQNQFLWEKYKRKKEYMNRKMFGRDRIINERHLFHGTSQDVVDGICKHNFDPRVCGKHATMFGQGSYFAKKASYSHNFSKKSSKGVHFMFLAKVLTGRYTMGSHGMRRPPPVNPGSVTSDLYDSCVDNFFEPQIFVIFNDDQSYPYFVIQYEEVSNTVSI
pIC50: −log10 of the molar value.
MEASURED_ENDPOINT: pIC50

C[C@H]1C[C@@H](COCCC(=O)N2CCN(c3ccc(C#N)cn3)CC2)N(c2cn[nH]c(=O)c2C(F)(F)F)C1 : > 7.00

Hello, I would appreciate it if you could give pIC50 for each entry below.
1. CC(=O)N(C)CCOc1cccc2c1CN(c1cn[nH]c(=O)c1C(F)(F)F)C2
2. O=c1[nH]ncc(N2Cc3cccc(OCCO)c3C2)c1C1CC1
3. N#Cc1c(N2Cc3cccc(OCCO)c3C2)cn[nH]c1=O

["> 7.00", "≤ 6.00", "≤ 6.00"]

Hello, I would appreciate it if you could give pIC50 for each entry below.
1. O=C(C[C@@H]1CC[C@H](COc2cn[nH]c(=O)c2Cl)O1)N1CCN(c2ncc(C(F)(F)F)cn2)CC1 [Example 575 Isomer D]
2. N#Cc1ccc(N2CCN(C(=O)CCOC[C@H]3c4ccccc4CN3c3cn[nH]c(=O)c3C(F)(F)F)CC2)nc1 (single isomer, unassigned) [Example 93 Isomer B]
3. COc1cccc2c1CN(c1cn[nH]c(=O)c1C(F)(F)F)C2

["≤ 6.00", "6.00 to 7.00", "> 7.00"]

----------
target: PARP7 (Homo sapiens (Human), UniProt Q7Z3E1); assay: Enzymatic assay for inhibition of PARP7: TR-FRET displacement of biotinylated Probe A from the TIPARP active site; assay type: binding; settings: Table A-1
Would you mind telling me the reported IC50 of each entry?

O=C(C[C@@H]1CC[C@@H]([C@@H]2CCCN2c2cn[nH]c(=O)c2C(F)(F)F)O1)N1CCN(c2ncc(C(F)(F)F)cn2)CC1 [Example 149A] : < 0.1 µM
N#Cc1ccc(N2CCN(C(=O)CCCCCOc3cn[nH]c(=O)c3C(F)(F)F)CC2)nc1 : < 0.1 µM

Form field IC50, entry COC[C@@H](CO[C@@H](C)CC(=O)N1CCN(c2ccc(C#N)cn2)CC1)Oc1cn[nH]c(=O)c1C(F)(F)F (single isomer, unassigned) [Example 571 Isomer B] : 0.1 to 1 µM

----------
Would you mind telling me the reported IC50 of each entry?
molecular target: PARP7 (Homo sapiens (Human)); experiment: Enzymatic assay for inhibition of PARP7: TR-FRET displacement of biotinylated Probe A from the TIPARP active site; conditions: Table A-1

Worked cases, IC50 given:
O=c1[nH]ncc(OCCOCCS(=O)(=O)N2CCN(c3ncc(C(F)(F)F)cn3)CC2)c1C(F)(F)F : < 0.1 µM
CC[C@@H](COCCC(=O)N1CCN(c2ncc(C(F)(F)F)cn2)CC1)Oc1cn[nH]c(=O)c1C(F)(F)F : < 0.1 µM
CN(CCC(=O)N1CCN(c2ccc(C#N)cn2)CC1)C[C@H]1c2ccccc2CN1c1cn[nH]c(=O)c1C(F)(F)F : 0.1 to 1 µM
CC(C)(COC[C@@H]1CCCN1c1cn[nH]c(=O)c1C(F)(F)F)CC(=O)N1CCN(c2ccc(C#N)cn2)CC1 : < 0.1 µM
N#Cc1ccc(N2CCN(C(=O)COCCOc3cccc4c3CN(c3cn[nH]c(=O)c3C(F)(F)F)C4)CC2)nc1 : < 0.1 µM

Hello, I would appreciate it if you could give IC50 for each entry below.
1. O=c1[nH]ncc(N2Cc3cccc(OC4CCN(C(c5ccccc5)c5ccccc5)CC4)c3C2)c1C(F)(F)F
2. COCC1c2ccccc2CN1c1cn[nH]c(=O)c1Cl (stereo not drawn)
3. O=c1[nH]ncc(N2Cc3cccc(OCCO)c3C2)c1Cl
4. N#Cc1ccc(N2CCN(C(=O)c3cccc(OC[C@@H]4CCCN4c4cn[nH]c(=O)c4C(F)(F)F)c3)C(CO)C2)nc1 (stereo partly drawn)
5. O=C(C[C@@H]1CC[C@H]([C@@H]2CCCN2c2cn[nH]c(=O)c2C(F)(F)F)O1)N1CCN(c2ccc(Cl)cn2)CC1 [Example 148B]

0.1 to 1 µM
≥ 1 µM
0.1 to 1 µM
< 0.1 µM
0.1 to 1 µM

Hello, I would appreciate it if you could give IC50 for each entry below.
1. O=C(CCOC[C@H](CO)Nc1cn[nH]c(=O)c1C(F)(F)F)N1CCN(c2ccc(C(F)(F)F)cn2)CC1
2. N#Cc1ccc(N2C3CCC2CN(C(=O)CCOC[C@@H]2CCCN2c2cn[nH]c(=O)c2C(F)(F)F)C3)nc1
3. COc1ccc2c(c1)C(C)N(c1cn[nH]c(=O)c1C(F)(F)F)C2 (stereo not drawn)
4. C[C@@H](COCCC(=O)N1CCN(c2ncc(C(F)(F)F)cn2)CC1)N(C)c1cn[nH]c(=O)c1Cl

1: < 0.1 µM; 2: < 0.1 µM; 3: 0.1 to 1 µM; 4: 0.1 to 1 µM

Hello, I would appreciate it if you could give IC50 for each entry below.
1. CN(CCOc1cn[nH]c(=O)c1C(F)(F)F)CCC(=O)N1CCN(c2ccc(C#N)cn2)CC1
2. N#Cc1cnc(N2CCN(C(=O)CCOCCOc3cn[nH]c(=O)c3C(F)(F)F)CC2)nc1
3. N#Cc1ccc(N2CCN(C(=O)c3cncc(OC[C@@H]4CCCN4c4cn[nH]c(=O)c4C(F)(F)F)n3)CC2)nc1
4. N#Cc1ccc(N2CCN(C(=O)CCOCC(CO)Nc3cn[nH]c(=O)c3C(F)(F)F)CC2)nc1 (stereo not drawn)

1. < 0.1 µM
2. < 0.1 µM
3. < 0.1 µM
4. < 0.1 µM

Hello, I would appreciate it if you could give IC50 for each entry below.
1. COC[C@H](COCCC(=O)N1CCN(c2ncc(Cl)cn2)CC1)Nc1cn[nH]c(=O)c1C(F)(F)F
2. CC(C)[C@@H](COCCC(=O)N1CCN(c2ccc(C#N)cn2)CC1)Nc1cn[nH]c(=O)c1C(F)(F)F
3. O=C(CCOC[C@@H]1CCCN1c1cn[nH]c(=O)c1C(F)(F)F)N1CCN(c2ccc(Cl)cn2)CC1
4. O=c1[nH]ncc(N2Cc3cccc(OCCO)c3C2)c1Br
5. CC[C@@H](COCCC(=O)N1CCN(c2ccc(Cl)cn2)CC1)Nc1cn[nH]c(=O)c1C(F)(F)F

1. < 0.1 µM
2. < 0.1 µM
3. < 0.1 µM
4. 0.1 to 1 µM
5. < 0.1 µM

Hello, I would appreciate it if you could give IC50 for each entry below.
1. O=C(C[C@@H]1CC[C@H](COc2cn[nH]c(=O)c2C(F)(F)F)O1)N1CCN(c2ncc(Cl)cn2)CC1 (single isomer, unassigned) [Example 565 Isomer D]
2. N#Cc1cnc(N2CCN(C(=O)c3cncc(OC[C@@H]4c5ccccc5CN4c4cn[nH]c(=O)c4C(F)(F)F)c3)CC2)nc1
3. O=c1[nH]ncc(N2Cc3cccc(OCCN4CCOCC4)c3C2)c1Cl
4. COCCOc1ccc2c(n1)CN(c1cn[nH]c(=O)c1C(F)(F)F)C2
5. O=c1[nH]ncc(N2Cc3c(F)ccc(OC4CCNCC4)c3C2)c1C(F)(F)F
6. C[C@@H](COCCC(=O)N1CCN(c2ncc(C(F)(F)F)cn2)CC1)Oc1cn[nH]c(=O)c1Br
7. C[C@@H](COCCC(=O)N1CCN(c2ccc(CN)cn2)CC1)Oc1cn[nH]c(=O)c1C(F)(F)F

["< 0.1 µM", "< 0.1 µM", "0.1 to 1 µM", "0.1 to 1 µM", "0.1 to 1 µM", "< 0.1 µM", "< 0.1 µM"]

----------
biological target: PARP7 (Homo sapiens (Human), UniProt Q7Z3E1); test: Enzymatic assay for inhibition of PARP7: TR-FRET displacement of biotinylated Probe A from the TIPARP active site; details: Table A-1
pIC50: −log10 of the molar value.
MEASURED_ENDPOINT: pIC50

Worked cases, pIC50 given:
O=C(CCOC[C@H](Nc1cn[nH]c(=O)c1C(F)(F)F)[C@H]1CCOC1)N1CCN(c2ncc(C(F)(F)F)cn2)CC1 (single isomer, unassigned) [Example 614 Isomer B] : > 7.00
C[C@H](COCCC(=O)N1CCN(c2ccc(C#N)cn2)CC1)Nc1cn[nH]c(=O)c1C(F)(F)F [Example 513B] : 6.00 to 7.00
O=C(CCOC[C@@H](Nc1cn[nH]c(=O)c1C(F)(F)F)[C@H]1CCOC1)N1CCN(c2ncc(C(F)(F)F)cn2)CC1 (single isomer, unassigned; isomer c) [Example 614 Isomer C] : > 7.00
N#Cc1cnc(N2CCN(C(=O)c3cc(OCC4c5ccccc5CN4c4cn[nH]c(=O)c4C(F)(F)F)cnc3F)CC2)nc1 (centres unmarked) : > 7.00
CCc1c(N2Cc3cccc(OC4CCNCC4)c3C2)cn[nH]c1=O : ≤ 6.00

Hello, I would appreciate it if you could give pIC50 for each entry below.
1. O=C(C[C@@H]1CC[C@@H](CNc2cn[nH]c(=O)c2C(F)(F)F)O1)N1CCN(c2ccc(C(F)(F)F)cn2)CC1 (single isomer, unassigned) [Example 546 Isomer A]
2. O=C(c1cccc(OC[C@@H]2CCCN2c2cn[nH]c(=O)c2C(F)(F)F)c1)N1CCN(c2ccc(C(F)(F)F)cn2)CC1
3. CO[C@H](C)[C@@H](COCCC(=O)N1CCN(c2ccc(C#N)cn2)CC1)Nc1cn[nH]c(=O)c1C(F)(F)F
4. C[C@@H](CN(C)CCC(=O)N1CCN(c2ncc(C(F)(F)F)cn2)CC1)Oc1cn[nH]c(=O)c1C(F)(F)F
5. N#Cc1ccc(N2CCN(C(=O)c3cncc(OCC4CCCN4c4cn[nH]c(=O)c4C(F)(F)F)c3)CC2)nc1 (centres unmarked)
6. N#Cc1ccc(N2CCN(C(=O)c3cc(OC[C@@H]4CCCN4c4cn[nH]c(=O)c4C(F)(F)F)ccc3F)CC2)nc1
7. O=C(CCOCCNc1cn[nH]c(=O)c1C(F)(F)F)N1CCN(c2ncc(Cl)cn2)CC1

["> 7.00", "> 7.00", "> 7.00", "> 7.00", "> 7.00", "> 7.00", "> 7.00"]

Hello, I would appreciate it if you could give pIC50 for each entry below.
1. NCC1c2ccccc2CN1c1cn[nH]c(=O)c1C(F)(F)F (centres unmarked)
2. O=C(CCOCCOc1cn[nH]c(=O)c1Br)N1CCN(c2ncc(Cl)cn2)CC1

1: ≤ 6.00; 2: > 7.00
